system: kochia; assay: Test A pre-/postemergence herbicide test; assay type: in vivo, Kochia scoparia; details: Postemergence, 500 g ai/ha
READOUT NAME: Kochia plant response rating (0 to 100 scale, 0 is no effect, 100 is complete control)
Respond using a number only.

1. Cc1ccc(NC(=O)C2C(=O)NCC2c2cccc(C(F)(F)F)c2)cc1C(F)(F)F (racemic) :: 0
2. COc1cc(C2CNC(=O)C2C(=O)Nc2ccc(F)c(F)c2F)ccc1F (racemic) :: 10
3. O=C1NCC(c2cccc(S(F)(F)(F)(F)F)c2)C1C(=O)Nc1ccccc1F (racemic) :: 0

Quick note, Kochia plant response rating (0 to 100 scale, 0 is no effect, 100 is complete control) for O=C1NCC(c2cccc(OC(F)F)c2)C1C(=O)Nc1ccccc1Br (stereo not drawn) landed at 30

Quick note, Kochia plant response rating (0 to 100 scale, 0 is no effect, 100 is complete control) for Cc1cc(C2CNC(=O)C2C(=O)Nc2ccccc2F)ccc1F (racemic) landed at 0

Quick note, Kochia plant response rating (0 to 100 scale, 0 is no effect, 100 is complete control) for Cc1ccc(C2CNC(=O)C2C(=O)Nc2ccc(F)cc2F)cc1F (racemic) landed at 20

----------
test system: pigweed; assay: Test C pre-/postemergence herbicide test; assay type: in vivo, Amaranthus retroflexus; settings: Postemergence; 250 g ai/ha; scale 0 to 100 (0 no effect, 100 complete control)
READOUT NAME: Plant response rating, Pigweed
Respond using a number only.

1. CN1CC(c2ccc(F)c(F)c2)C(C(=O)Nc2cccc(F)c2F)C1=O (stereo not shown) :: 25
2. O=C1NCC(c2ccc(F)c(F)c2)C1C(=O)Nc1cccc(F)c1F (racemic) :: 45
3. O=C1NCC(c2ccc(Cl)c(F)c2)C1C(=O)Nc1cccc(F)c1F (stereo not shown) :: 60

With those in mind, consider the next compound.
Quick note, Plant response rating, Pigweed for O=C1NC[C@H](c2cccc(C(F)(F)F)c2)[C@H]1C(=O)Nc1cccc(F)c1F landed at 30

----------
Measured Plant response rating, Foxtail, Giant, listed per entry for reference.
test system: foxtail, giant; assay: Test C pre-/postemergence herbicide test; type: in vivo, Setaria faberii; details: Postemergence, 62 g ai/ha; scale 0 (no effect) to 100 (complete control)
Source text: […]

1. O=C1NCC(c2cccc(OC(F)F)c2)C1C(=O)Nc1cccc(F)c1F (stereo not shown) :: 0
2. O=C1NCC(c2cccc(Br)c2)C1C(=O)Nc1ccc(F)c(F)c1F (stereo not shown) :: 5
3. O=C1NCC(c2ccc(C(F)(F)F)cc2)C1C(=O)Nc1cccc(F)c1F (racemic) :: 25
4. O=C1NCC(c2cccc(OC(F)F)c2)C1C(=O)Nc1ccccc1F (stereo not shown) :: 0
5. CN1CC(c2cccc(C(F)(F)F)c2)C(C(=O)Nc2cccc(F)c2F)C1=O (stereo not shown) :: 65
6. O=C1NCC(c2ccc(F)cc2)C1C(=O)Nc1ccc(F)c(F)c1F (racemic) :: 65

With those in mind, consider the next molecule.
Item O=C1NC[C@H](c2cccc(C(F)(F)F)c2)[C@H]1C(=O)Nc1ccccc1F was tested on foxtail, giant; the reported Plant response rating, Foxtail, Giant is 10

----------
test system: foxtail, giant; assay: Test C pre-/postemergence herbicide test; format: in vivo, Setaria faberii; conditions: Postemergence; 125 g ai/ha; scale 0 to 100 (0 no effect, 100 complete control)
Source text: […]
Binary call on Plant response rating, Foxtail, Giant: met from 30 upward, not met beneath that.

These recorded examples may help you get a feel for the data.
1) O=C1NCC(c2ccc(C(F)(F)F)cc2)C1C(=O)Nc1cccc(F)c1F (centres unmarked) :: met
2) O=C1NCC(c2ccc(C(F)(F)F)cc2)C1C(=O)Nc1ccccc1F (centres unmarked) :: not met
3) O=C1NCC(c2ccc(Cl)c(F)c2)C1C(=O)Nc1cccc(F)c1F (centres unmarked) :: not met

Shifting focus to the molecule that follows.
I'd appreciate it if you could say whether O=C1NCC(c2cccc(OC(F)F)c2)C1C(=O)Nc1cccc(F)c1F (centres unmarked) has Plant response rating, Foxtail, Giant at least equal to 30.
met

----------
tested on: oat, wild; experiment: Test C pre-/postemergence herbicide test; assay type: in vivo, Avena fatua; conditions: Preemergence, 62 g ai/ha; scale 0 to 100
Measured Plant response rating, Oat, Wild, listed per entry for reference.
Respond using a number only.

Quick note, Plant response rating, Oat, Wild for O=C1NCC(c2cccc(OC(F)(F)F)c2)C1C(=O)Nc1ccccc1F (centres unmarked) landed at 0

Quick note, Plant response rating, Oat, Wild for O=C1NCC(c2ccc(F)c(F)c2)C1C(=O)Nc1cccc(F)c1F (centres unmarked) landed at 0

Quick note, Plant response rating, Oat, Wild for O=C1NCC(c2ccc(Cl)c(Cl)c2)C1C(=O)Nc1ccccc1F (racemic) landed at 0

Quick note, Plant response rating, Oat, Wild for O=C1NCC(c2ccc(Cl)c(F)c2)C1C(=O)Nc1cccc(F)c1F (centres unmarked) landed at 0

Quick note, Plant response rating, Oat, Wild for O=C1NCC(c2ccc(F)c(Cl)c2)C1C(=O)Nc1ccccc1F (centres unmarked) landed at 0

----------
Measured Plant response rating, Barnyardgrass, listed per entry for reference.
system: barnyardgrass; assay: Test A pre-/postemergence herbicide test; assay type: in vivo, Echinochloa crus-galli; conditions: Preemergence, 1000 g ai/ha; visual rating on 0 to 100 scale (0 no effect, 100 complete control), approx. 10 days

Solved entries:
1) CN(C(=O)C1C(=O)NCC1c1ccc(F)c(F)c1)c1ccccc1F (stereo not shown) [Compound 24] :: 0
2) O=C1NCC(c2ccc(F)c(F)c2)C1C(=O)Nc1cccc(Cl)c1 (racemic) [Compound 18] :: 80
3) O=C1NCC(c2ccc(F)c(F)c2)C1C(=O)Nc1ccccc1Cl (racemic) [Compound 99] :: 90

With those in mind, consider the next compound.
Quick note, Plant response rating, Barnyardgrass for CS(=O)(=O)c1ccccc1NC(=O)C1C(=O)NCC1c1ccc(F)c(F)c1 (racemic) [Compound 21] landed at 90

----------
tested on: velvetleaf; assay: Test C pre-/postemergence herbicide test; type: in vivo, Abutilon theophrasti; conditions: Preemergence, 250 g ai/ha
READOUT NAME: Plant response rating (scale of 0 to 100), Velvetleaf
Respond using a number only.

Solved entries:
1) O=C1NCC(c2cccc(OC(F)F)c2)C1C(=O)Nc1cccc(F)c1F (stereo not shown) :: 40
2) O=C1NCC(c2ccc(C(F)(F)F)cc2)C1C(=O)Nc1cccc(F)c1F (stereo not shown) :: 50
3) O=C1NCC(c2ccc(F)cc2)C1C(=O)Nc1ccc(F)c(F)c1F (racemic) :: 40

With those in mind, consider the next molecule.
Item O=C1NC[C@H](c2cccc(C(F)(F)F)c2)[C@H]1C(=O)Nc1ccccc1F was tested on velvetleaf; the reported Plant response rating (scale of 0 to 100), Velvetleaf is 30

----------
Measured Plant response rating (scale of 0 to 100), Foxtail, Giant, listed per entry for reference.
test system: foxtail, giant; assay: Test C pre-/postemergence herbicide test; assay type: in vivo, Setaria faberii; conditions: Preemergence, 250 g ai/ha

Quick note, Plant response rating (scale of 0 to 100), Foxtail, Giant for O=C1NCC(c2ccc(F)cc2)C1C(=O)Nc1ccc(F)c(F)c1F (racemic) landed at 98

----------
Measured Plant response rating, Foxtail, Giant, listed per entry for reference.
test system: giant foxtail; assay: Test A pre-/postemergence herbicide test; format: in vivo, Setaria faberii; conditions: Postemergence, 500 g ai/ha; 0 to 100 scale (0 no effect, 100 complete control)

Solved entries:
1) O=C1NCC(c2cccc(I)c2)C1C(=O)Nc1cccc(F)c1F (centres unmarked) [Compound 327] :: 80
2) O=C1NCC(c2ccc(Cl)c(Cl)c2)C1C(=O)Nc1ccc(F)cc1F (racemic) [Compound 272] :: 80
3) O=C1NCC(c2ccc(Br)c(Br)c2)C1C(=O)Nc1ccc(F)c(F)c1F (centres unmarked) [Compound 342] :: 50
4) O=C1NCC(c2cccc(C(F)(F)F)c2)C1C(=O)Nc1ccc(F)c(F)c1F (centres unmarked) [Compound 345] :: 90
5) O=C1NCC(c2ccc(SC(F)(F)F)cc2)C1C(=O)Nc1ccc(F)c(F)c1F (centres unmarked) [Compound 322] :: 60

Quick note, Plant response rating, Foxtail, Giant for CC1NC(=O)C(C(=O)Nc2ccccc2C(F)(F)F)C1c1ccc(F)c(F)c1 (mixture of isomers) [Compound 9] landed at 70

Quick note, Plant response rating, Foxtail, Giant for Cc1cccc(NC(=O)C2C(=O)NCC2c2ccc(F)c(F)c2)c1 (centres unmarked) [Compound 56] landed at 60

Quick note, Plant response rating, Foxtail, Giant for CSc1cccc(C2CNC(=O)C2C(=O)Nc2ccc(F)c(F)c2F)c1 (centres unmarked) [Compound 290] landed at 60

Quick note, Plant response rating, Foxtail, Giant for O=C1NCC(c2ccc(Cl)c(C(F)(F)F)c2)C1C(=O)Nc1ccccc1F (racemic) [Compound 267] landed at 80

Quick note, Plant response rating, Foxtail, Giant for CN1CC(c2ccc(C(F)(F)F)cc2)C(C(=O)Nc2cccc(F)c2F)C1=O (centres unmarked) [Compound 306] landed at 80
